Assay: method code SF-AS, from DOI: 10.1002/qsar.19890080102
Conditions: pH 5.5
endpoint.label: logD
Could you respond with only the numeric value?

query: Respond only with logD recorded for Nc1cccc(S(N)(=O)=O)c1
result: -0.32

* * *

Assay: method code SF-AS, from DOI: 10.1002/qsar.19890080102
Details: pH 1.5
endpoint.label: logD

{"columns": ["smiles.record", "endpoint.result"],
 "data": [
  ["CC(C)c1ccc(S(N)(=O)=O)cc1", 1.71],
  ["CCCCOc1cccc(S(N)(=O)=O)c1", 2.06],
  ["NS(=O)(=O)c1ccc(Br)cc1", 1.34],
  ["NS(=O)(=O)c1ccc(-c2ccccc2)cc1", 2.24]
]}

query: Respond only with logD recorded for NS(=O)(=O)c1cccc(I)c1
result: 1.58

The reported numbers originate from the SangsterLogP compilation.
